B1: Segment polarity protein dishevelled homolog DVL-3, residues 2 to 81; numbered along this chain, Q92997 (parent)
chain: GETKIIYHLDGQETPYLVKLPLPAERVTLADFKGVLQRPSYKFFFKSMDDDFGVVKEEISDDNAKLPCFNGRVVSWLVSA

Variants of: B1
assay_comment: abundance fitness (aPCA) (normalised: wild type 0, dead -1); higher = more abundant; growth selection in yeast, the domain comes from the species named
test_parameters: Homo sapiens
We'd kindly ask you to apply these abundance fitness classes: lower bin: < -0.7; middle bin: ≥ -0.7 and < -0.2; upper bin: ≥ -0.2

variant_id=D49I label_value="middle bin"
variant_id=V27A label_value="middle bin"
variant_id=S75E label_value="lower bin"
variant_id=S79C label_value="middle bin"
variant_id=L22S label_value="lower bin"
variant_id=F45V label_value="lower bin"
variant_id=F52Q label_value="upper bin"
variant_id=N63F label_value="middle bin"
variant_id=D50N label_value="upper bin"
variant_id=K33V label_value="lower bin"
variant_id=K42C label_value="middle bin"
variant_id=V78I label_value="upper bin"
variant_id=E25I label_value="middle bin"
variant_id=C68I label_value="upper bin"
variant_id=P23W label_value="lower bin"
variant_id=L22K label_value="upper bin"
variant_id=Y41G label_value="middle bin"
variant_id=N70K label_value="upper bin"
variant_id=K19P label_value="lower bin"
variant_id=D61G label_value="lower bin"
variant_id=Q37M label_value="upper bin"
variant_id=I59K label_value="middle bin"
variant_id=S40E label_value="upper bin"
variant_id=N70T label_value="middle bin"
variant_id=I59L label_value="middle bin"
variant_id=S79P label_value="upper bin"
variant_id=E58H label_value="middle bin"
variant_id=E58V label_value="middle bin"
variant_id=E25C label_value="upper bin"
variant_id=A30S label_value="middle bin"
variant_id=K65L label_value="upper bin"
variant_id=L66A label_value="lower bin"
variant_id=F45Q label_value="middle bin"
variant_id=R38Y label_value="upper bin"
variant_id=Q37E label_value="upper bin"
variant_id=V27Y label_value="middle bin"
variant_id=S47L label_value="upper bin"
variant_id=R26P label_value="middle bin"
variant_id=W76E label_value="lower bin"
variant_id=S79H label_value="middle bin"
